Sourced from ChEMBL document CHEMBL4602611

# System: MGC-803
# protocol-description: Antiproliferative activity against human MGC803 cells assessed as inhibition of cell growth incubated for 48 hrs by MTT assay
# Type: functional, cell-based
# reported-conditions: MGC-803, 48 h
// reported IC50 for each item listed

{"chemical-string": "COc1cc(Nc2nc(Nc3ccc4c(ccn4C)c3)nnc2Cl)cc(OC)c1OC", "IC50 / µM": 28.1}
{"chemical-string": "COc1cc(Nc2nc(Nc3ccc(Br)cc3)nnc2Cl)cc(OC)c1OC", "IC50 / µM": 11.3}
{"chemical-string": "COc1cc(Nc2nc(Nc3ccc(C(N)=O)cc3)nnc2Cl)cc(OC)c1OC", "IC50 / µM": 15.2}
{"chemical-string": "COc1cc(Nc2nc(Nc3ccc(C(C)=O)cc3)nnc2Cl)cc(OC)c1OC", "IC50 / µM": 13}
{"chemical-string": "COc1cc(Nc2nc(Nc3ccc(Cl)cc3)nnc2Cl)cc(OC)c1OC", "IC50 / µM": 12.6}
{"chemical-string": "COc1cccc(Nc2nnc(Cl)c(Nc3cc(OC)c(OC)c(OC)c3)n2)c1", "IC50 / µM": 16.5}
{"chemical-string": "COc1cc(Nc2nc(Nc3ccccc3)nnc2Cl)cc(OC)c1OC", "IC50 / µM": 8.75}

====

# target-desc: NEDD8-activating enzyme E1 regulatory subunit (Homo sapiens, UniProt Q13564)
# Sequence (Q13564 whole entry): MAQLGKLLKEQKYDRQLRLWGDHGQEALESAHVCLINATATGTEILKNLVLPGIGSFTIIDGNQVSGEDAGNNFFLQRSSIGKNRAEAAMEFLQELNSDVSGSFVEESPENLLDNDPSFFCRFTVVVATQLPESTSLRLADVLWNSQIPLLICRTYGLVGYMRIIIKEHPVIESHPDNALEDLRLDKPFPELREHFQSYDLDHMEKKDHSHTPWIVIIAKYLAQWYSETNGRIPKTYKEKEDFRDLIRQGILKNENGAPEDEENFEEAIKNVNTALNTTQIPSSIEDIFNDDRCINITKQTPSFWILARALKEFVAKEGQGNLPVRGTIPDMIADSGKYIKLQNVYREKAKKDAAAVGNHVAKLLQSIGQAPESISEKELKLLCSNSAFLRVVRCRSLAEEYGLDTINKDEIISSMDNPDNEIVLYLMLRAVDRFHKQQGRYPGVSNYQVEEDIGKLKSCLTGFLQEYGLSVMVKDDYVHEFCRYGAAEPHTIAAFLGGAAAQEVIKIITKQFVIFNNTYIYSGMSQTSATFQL
# protocol-description: Inhibition of NAE-mediated neddylation in human MGC803 cells assessed as reduction in Nedd8-Ubcl2 adduct formation incubated for 24 hrs by Western blot analysis
pEC50: −log10 of the molar value.
outcome-measure: pEC50

{"chemical-string": "COc1cc(Nc2nc(Nc3ccc4[nH]ccc4c3)nnc2Cl)cc(OC)c1OC", "outcome-measure": "pEC50", "assay-result": 5.45}

====

# System: MGC-803
# protocol-description: Antiproliferative activity against human MGC803 cells assessed as inhibition of cell growth incubated for 48 hrs by MTT assay
# Assay type: functional, cell-based
# reported-conditions: MGC-803, 48 h
pIC50: −log10 of the molar value.

{"chemical-string": "CCOC(=O)c1ccc(Nc2nnc(Cl)c(Nc3cc(OC)c(OC)c(OC)c3)n2)cc1", "pIC50": 4.27}
{"chemical-string": "COc1cc(Nc2nc(Nc3ccc4[nH]ccc4c3)nnc2Cl)cc(OC)c1OC", "pIC50": 5.09}
{"chemical-string": "COc1cc(Nc2nnc(Cl)c(Nc3cc(OC)c(OC)c(OC)c3)n2)cc(OC)c1OC", "pIC50": 4.61}
{"chemical-string": "COc1ccc(Nc2nnc(Cl)c(Nc3cc(OC)c(OC)c(OC)c3)n2)cc1", "pIC50": 4.72}
{"chemical-string": "COc1cc(Nc2nc(Nc3ccc(C)cc3)nnc2Cl)cc(OC)c1OC", "pIC50": 4.70}
